test: Time of peak concentration of compound was determined in monkey at 25 mg/kg orally; type: ADME, organism-based; set-up: dose 25 mg/kg, route oral; settings: simiiformes, in vivo, po

- Input smiles: "O=C(NO)C1(S(=O)(=O)c2ccc(Oc3ccc(Cl)cc3)cc2)CCN(Cc2ccccc2)CC1"
  Tmax / h: 5.7

* * *

test: Area under concentration-time curve of compound was determined in rat at 5 mg/kg intravenously admn.; format: ADME, organism-based; parameters: dose 5 mg/kg, route intravenous; conditions: in vivo, iv, read-out: AUC 0

- Input smiles: "O=C(NO)C1(S(=O)(=O)c2ccc(Oc3ccc(Cl)cc3)cc2)CCN(Cc2ccccc2)CC1"
  AUC / µg·h/mL: 327

* * *

test: Area under concentration-time curve of compound was determined in dog at 25 mg/kg orally; type: ADME, organism-based, Canis lupus familiaris; parameters: dose 25 mg/kg, route oral; details: in vivo, po

- Input smiles: "O=C(NO)C1(S(=O)(=O)c2ccc(Oc3ccc(Cl)cc3)cc2)CCN(Cc2ccccc2)CC1"
  AUC, µg·h/mL: 1810

* * *

assay: Total clearance of compound was determined in rat at 5 mg/kg intravenously admn.; type: ADME, organism-based; set-up: dose 5 mg/kg, route intravenous; details: in vivo, iv, read-out: CLT

- Input smiles: "O=C(NO)C1(S(=O)(=O)c2ccc(Oc3ccc(Cl)cc3)cc2)CCN(Cc2ccccc2)CC1"
  Unit tag: "mL/min/kg"
  clearance: 0.3

* * *

assay: Area under concentration-time curve of compound was determined in monkey at 25 mg/kg orally; format: ADME, organism-based; set-up: dose 25 mg/kg, route oral; details: simiiformes, in vivo, po

- Input smiles: "O=C(NO)C1(S(=O)(=O)c2ccc(Oc3ccc(Cl)cc3)cc2)CCN(Cc2ccccc2)CC1"
  AUC, µg·h/mL: 1410

* * *

assay: Volume of distribution at steady state of compound was determined in rat at 5 mg/kg intravenously admn.; assay type: ADME, organism-based; set-up: dose 5 mg/kg, route intravenous; conditions: in vivo, iv, read-out: Vdss

- Input smiles: "O=C(NO)C1(S(=O)(=O)c2ccc(Oc3ccc(Cl)cc3)cc2)CCN(Cc2ccccc2)CC1"
  Vd / L/kg: 0.1

* * *

experiment: Apparent elimination half life of compound was determined in dogt at 5 mg/kg intravenously admn.; assay type: ADME, organism-based, Canis lupus familiaris; set-up: dose 5 mg/kg, route intravenous; details: dog, in vivo, iv

- Input smiles: "O=C(NO)C1(S(=O)(=O)c2ccc(Oc3ccc(Cl)cc3)cc2)CCN(Cc2ccccc2)CC1"
  half-life: "13.5 h"

* * *

assay: Apparent elimination half life of compound was determined in rat at 25 mg/kg orally; type: ADME, organism-based; design: dose 25 mg/kg, route oral; settings: in vivo, po

- Input smiles: "O=C(NO)C1(S(=O)(=O)c2ccc(Oc3ccc(Cl)cc3)cc2)CCN(Cc2ccccc2)CC1"
  Unit tag: "h"
  half-life: 10.7

* * *

assay: Apparent elimination half life of compound was determined in dog at 25 mg/kg orally; type: ADME, organism-based, Canis lupus familiaris; set-up: dose 25 mg/kg, route oral; details: in vivo, po

- Input smiles: "O=C(NO)C1(S(=O)(=O)c2ccc(Oc3ccc(Cl)cc3)cc2)CCN(Cc2ccccc2)CC1"
  half-life: "17.6 h"

* * *

target: 72 kDa type IV collagenase (Homo sapiens, UniProt P08253)
Sequence (P08253 whole entry): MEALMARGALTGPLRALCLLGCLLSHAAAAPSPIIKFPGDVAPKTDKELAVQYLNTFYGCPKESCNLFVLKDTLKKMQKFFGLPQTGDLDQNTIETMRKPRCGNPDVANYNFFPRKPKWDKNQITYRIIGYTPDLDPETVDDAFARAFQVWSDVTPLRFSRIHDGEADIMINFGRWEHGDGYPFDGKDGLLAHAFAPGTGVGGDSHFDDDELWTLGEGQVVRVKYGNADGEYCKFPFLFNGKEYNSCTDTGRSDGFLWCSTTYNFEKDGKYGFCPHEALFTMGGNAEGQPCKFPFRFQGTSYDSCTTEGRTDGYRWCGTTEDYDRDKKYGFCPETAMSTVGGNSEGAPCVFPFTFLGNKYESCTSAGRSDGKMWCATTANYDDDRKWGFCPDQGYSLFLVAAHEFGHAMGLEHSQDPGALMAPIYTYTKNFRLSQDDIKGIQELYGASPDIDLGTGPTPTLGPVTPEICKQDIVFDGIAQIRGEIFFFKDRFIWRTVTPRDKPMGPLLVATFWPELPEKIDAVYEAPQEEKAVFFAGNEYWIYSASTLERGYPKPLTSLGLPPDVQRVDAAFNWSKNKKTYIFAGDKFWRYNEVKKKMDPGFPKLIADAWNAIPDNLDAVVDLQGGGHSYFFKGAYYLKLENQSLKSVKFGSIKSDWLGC
Metric name: IC50 (nM)

- Input smiles: "O=C(NO)C1(S(=O)(=O)c2ccc(Oc3ccc(Cl)cc3)cc2)CCN(Cc2ccccc2)CC1"
  Assayed target: "72 kDa type IV collagenase (Homo sapiens, UniProt P08253)"
  Result number: 1

* * *

Catalogue of pIC50 readings, one per entry.
target: Disintegrin and metalloproteinase domain-containing protein 17 (Homo sapiens, UniProt P78536); assay: In vitro inhibitory activity against tumor necrosis factor alpha converting enzyme (TACE).
Sequence (P78536 whole entry, the tested form may be a part): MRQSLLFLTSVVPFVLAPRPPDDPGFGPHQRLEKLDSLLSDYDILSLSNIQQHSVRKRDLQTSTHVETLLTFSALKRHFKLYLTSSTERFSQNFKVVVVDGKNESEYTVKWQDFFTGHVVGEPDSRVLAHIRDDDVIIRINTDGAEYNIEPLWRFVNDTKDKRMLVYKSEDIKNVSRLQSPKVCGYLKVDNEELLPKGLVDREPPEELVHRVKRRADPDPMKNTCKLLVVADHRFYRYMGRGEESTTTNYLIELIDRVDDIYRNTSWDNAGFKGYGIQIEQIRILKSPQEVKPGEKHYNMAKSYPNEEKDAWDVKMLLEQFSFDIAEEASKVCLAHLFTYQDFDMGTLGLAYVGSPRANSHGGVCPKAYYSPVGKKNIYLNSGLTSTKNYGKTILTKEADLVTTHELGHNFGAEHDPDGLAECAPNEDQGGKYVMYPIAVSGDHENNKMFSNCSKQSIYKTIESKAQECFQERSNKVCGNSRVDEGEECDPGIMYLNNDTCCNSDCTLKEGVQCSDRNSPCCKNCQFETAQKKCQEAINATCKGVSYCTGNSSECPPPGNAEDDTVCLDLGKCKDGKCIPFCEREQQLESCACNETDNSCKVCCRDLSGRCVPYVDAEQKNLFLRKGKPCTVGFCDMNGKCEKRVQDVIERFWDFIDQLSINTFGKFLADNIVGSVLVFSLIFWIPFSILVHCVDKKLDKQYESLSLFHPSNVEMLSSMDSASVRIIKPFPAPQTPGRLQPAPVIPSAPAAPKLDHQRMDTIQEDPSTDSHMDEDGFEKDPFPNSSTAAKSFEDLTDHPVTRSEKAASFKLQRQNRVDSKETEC
pIC50: −log10 of the molar value.
Metric name: pIC50

- Input smiles: "O=C(NO)C1(S(=O)(=O)c2ccc(OCc3ccccc3)cc2)CCN(Cc2ccccc2)CC1"
  Metric name: "pIC50"
  Result number: 6.38
- Input smiles: "COc1ccc(CN2CCC(C(=O)NO)(S(=O)(=O)c3ccc(Oc4ccc(Cl)cc4)cc3)CC2)cc1"
  Metric name: "pIC50"
  Result number: 6.31
- Input smiles: "O=C(NO)C1(S(=O)(=O)c2ccc(Oc3ccc(Cl)cc3)cc2)CCNCC1"
  Metric name: "pIC50"
  Result number: 6.07
- Input smiles: "COc1ccc(S(=O)(=O)C2(C(=O)NO)CCN(Cc3ccc(-c4cccs4)cc3)CC2)cc1"
  Metric name: "pIC50"
  Result number: 6.56
- Input smiles: "CCCCOc1ccc(S(=O)(=O)C2(C(=O)NO)CCOCC2)cc1"
  Metric name: "pIC50"
  Result number: 6.75
- Input smiles: "COc1ccc(S(=O)(=O)C2(C(=O)NO)CCN(Cc3ccc(-c4ccccc4)cc3)CC2)cc1"
  Metric name: "pIC50"
  Result number: 6.21
- Input smiles: "O=C(NO)C1(CS(=O)(=O)c2ccc(Oc3ccc(Cl)cc3)cc2)CCOCC1"
  Metric name: "pIC50"
  Result number: 6.75
- Input smiles: "CCCCN1CCC(C(=O)NO)(S(=O)(=O)c2ccc(Oc3ccc(Cl)cc3)cc2)CC1"
  Metric name: "pIC50"
  Result number: 6.52
- Input smiles: "O=C(NO)C1(S(=O)(=O)c2ccc(-c3ccco3)cc2)CCN(Cc2ccccc2)CC1"
  Metric name: "pIC50"
  Result number: 6.38

* * *

assay: Peak concentration of compound at Time = 0 was determined in monkey at 5 mg/kg intravenously admn.; assay type: ADME, organism-based; set-up: dose 5 mg/kg, route intravenous; conditions: simiiformes, in vivo, iv
Metric name: C0 (µg/mL)

- Input smiles: "O=C(NO)C1(S(=O)(=O)c2ccc(Oc3ccc(Cl)cc3)cc2)CCN(Cc2ccccc2)CC1"
  Result number: 162

* * *

test: Volume of distribution at steady state of compound was determined in rabbit at 5 mg/kg intravenously admn.; format: ADME, organism-based, Oryctolagus cuniculus; set-up: dose 5 mg/kg, route intravenous; conditions: in vivo, iv, read-out: Vdss
Metric name: Vd (L/kg)

- Input smiles: "O=C(NO)C1(S(=O)(=O)c2ccc(Oc3ccc(Cl)cc3)cc2)CCN(Cc2ccccc2)CC1"
  Unit tag: "L/kg"
  Result number: 0.1

* * *

test: Peak concentration of compound at Time = 0 was determined in rat at 5 mg/kg intravenously admn.; assay type: ADME, organism-based; set-up: dose 5 mg/kg, route intravenous; settings: in vivo, iv

- Input smiles: "O=C(NO)C1(S(=O)(=O)c2ccc(Oc3ccc(Cl)cc3)cc2)CCN(Cc2ccccc2)CC1"
  C0, µg/mL: 329

* * *

target: UniProt:P03956
Sequence (P03956 whole entry): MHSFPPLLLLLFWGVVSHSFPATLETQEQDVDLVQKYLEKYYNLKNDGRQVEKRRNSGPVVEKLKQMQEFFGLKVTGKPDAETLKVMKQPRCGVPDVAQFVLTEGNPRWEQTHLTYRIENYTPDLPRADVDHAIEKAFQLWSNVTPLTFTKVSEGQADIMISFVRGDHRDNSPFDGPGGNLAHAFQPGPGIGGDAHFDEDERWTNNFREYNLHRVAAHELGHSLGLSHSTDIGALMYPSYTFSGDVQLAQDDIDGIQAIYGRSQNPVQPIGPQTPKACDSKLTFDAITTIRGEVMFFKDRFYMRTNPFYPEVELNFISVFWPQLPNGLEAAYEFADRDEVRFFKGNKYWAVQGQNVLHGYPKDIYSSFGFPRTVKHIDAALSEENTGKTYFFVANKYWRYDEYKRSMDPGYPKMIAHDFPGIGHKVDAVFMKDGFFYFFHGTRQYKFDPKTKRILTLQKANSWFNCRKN
Criterion: IC50 strictly under 1000 nM. Met: TRUE. Not met: FALSE.

- Input smiles: "O=C(NO)C1(S(=O)(=O)c2ccc(OCc3ccccc3)cc2)CCN(Cc2ccccc2)CC1"
  Assayed target: "UniProt:P03956"
  Group: "TRUE"
- Input smiles: "O=C(NO)C1(S(=O)(=O)c2ccc(-c3ccco3)cc2)CCN(Cc2ccccc2)CC1"
  Assayed target: "UniProt:P03956"
  Group: "TRUE"
- Input smiles: "CCC(CC)Oc1ccc(S(=O)(=O)C2(C(=O)NO)CCN(Cc3ccccc3)CC2)cc1"
  Assayed target: "UniProt:P03956"
  Group: "FALSE"
- Input smiles: "CCCCOc1ccc(S(=O)(=O)C2(C(=O)NO)CCOCC2)cc1"
  Assayed target: "UniProt:P03956"
  Group: "FALSE"
- Input smiles: "O=C(NO)C1(CS(=O)(=O)c2ccc(Oc3ccc(Cl)cc3)cc2)CCOCC1"
  Assayed target: "UniProt:P03956"
  Group: "TRUE"
- Input smiles: "COc1ccc(S(=O)(=O)C2(C(=O)NO)CCN(Cc3ccc(-c4ccccc4)cc3)CC2)cc1"
  Assayed target: "UniProt:P03956"
  Group: "FALSE"
- Input smiles: "COc1ccc(S(=O)(=O)C2(C(=O)NO)CCN(Cc3ccc(-c4cccs4)cc3)CC2)cc1"
  Assayed target: "UniProt:P03956"
  Group: "TRUE"

* * *

assay: Apparent elimination half life of compound was determined in rat at 5 mg/kg intravenously admn.; assay type: ADME, organism-based; design: dose 5 mg/kg, route intravenous; conditions: in vivo, iv

- Input smiles: "O=C(NO)C1(S(=O)(=O)c2ccc(Oc3ccc(Cl)cc3)cc2)CCN(Cc2ccccc2)CC1"
  half-life [h]: 4.4

* * *

molecular target: UniProtKB P14780
Sequence (P14780 whole entry): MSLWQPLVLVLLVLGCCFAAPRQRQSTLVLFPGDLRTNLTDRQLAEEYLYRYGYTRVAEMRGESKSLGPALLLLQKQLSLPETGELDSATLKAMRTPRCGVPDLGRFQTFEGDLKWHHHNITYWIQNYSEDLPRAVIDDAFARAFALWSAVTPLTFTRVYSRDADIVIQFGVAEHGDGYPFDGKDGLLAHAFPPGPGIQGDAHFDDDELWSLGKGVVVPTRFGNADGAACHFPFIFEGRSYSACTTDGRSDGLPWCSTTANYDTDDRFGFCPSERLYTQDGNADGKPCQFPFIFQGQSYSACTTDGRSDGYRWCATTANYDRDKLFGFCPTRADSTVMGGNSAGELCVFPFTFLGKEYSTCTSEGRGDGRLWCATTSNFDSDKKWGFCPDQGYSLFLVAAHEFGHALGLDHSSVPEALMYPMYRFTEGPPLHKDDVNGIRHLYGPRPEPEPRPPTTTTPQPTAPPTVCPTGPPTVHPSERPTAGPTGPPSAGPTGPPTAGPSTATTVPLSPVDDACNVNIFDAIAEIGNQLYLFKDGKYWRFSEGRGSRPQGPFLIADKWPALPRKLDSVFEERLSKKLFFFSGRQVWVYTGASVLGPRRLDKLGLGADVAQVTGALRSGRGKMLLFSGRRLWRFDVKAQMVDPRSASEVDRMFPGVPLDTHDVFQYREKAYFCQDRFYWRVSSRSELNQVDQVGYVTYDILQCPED
pIC50: −log10 of the molar value.
Catalogue of pIC50 readings, one per entry.

- Input smiles: "CCCCOc1ccc(S(=O)(=O)C2(C(=O)NO)CCN(Cc3ccccc3)CC2)cc1"
  pIC50: 8.40
- Input smiles: "CCCCOc1ccc(S(=O)(=O)C2(C(=O)NO)CCN(CCCOc3ccccc3)CC2)cc1"
  pIC50: 8.30
- Input smiles: "CCCCOc1ccc(S(=O)(=O)C2(C(=O)NO)CCN(C)CC2)cc1"
  pIC50: 8.00
- Input smiles: "COc1ccc(S(=O)(=O)C2(C(=O)NO)CCN(CCOc3ccccc3)CC2)cc1"
  pIC50: 7.59
